TEST_SYSTEM: TNFα (Homo sapiens (Human), UniProt P01375)
Sequence (P01375 77-233): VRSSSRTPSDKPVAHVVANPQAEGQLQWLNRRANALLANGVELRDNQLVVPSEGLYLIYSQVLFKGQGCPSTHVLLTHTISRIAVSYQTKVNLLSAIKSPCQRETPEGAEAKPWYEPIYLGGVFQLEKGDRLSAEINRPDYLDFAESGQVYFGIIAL
TEST: TNF induced HEK-Blue assay
CONDITION_SUMMARY: HEK-Blue-CD40L cells, TNFα 0.5 ng/ml, NF-κB-driven secreted alkaline phosphatase reporter, 18 h
Method: TNF or CD40L-Induced HEK-Blue Assay Test compounds serially diluted in DMSO were plated in an assay plate (Labcyte, Cat. #LP-0200) at final concentrations ranging from 0.004 μM to 25 μM. […] Secreted alkaline phosphatase expression was measured using QUANTI-Blue (InvivoGen, Cat. Code rep-qbl) according to manufacturer's specifications and the assay plate was read on a PerkinElmer Envision at 620 nm. […]
pIC50: −log10 of the molar value.
# pIC50 per entry

Check out these entries, answers already filled in.
get_value(item= "COc1ccc(-c2cn3c4c(nc3cc2Cl)CCCN4c2cc(C)ccc2C)cn1" , readout=pIC50) returns 5.00 to 6.00

get_value(item= COc1ccc(-c2ccc3nc4c(n3c2)N(c2cc(C)ccc2C)CCC4C)cn1 (stereo not drawn) , readout=pIC50) returns > 6.00

Let us move to another entry and its pIC50.
get_value(item= "Cc1ccc(C)c(N2CCCc3nc4ccc(-c5cnc(C(C)(C)O)nc5)cn4c32)c1" , readout=pIC50) returns > 6.00
